Source: ChEMBL document CHEMBL1909046

Target: Tyrosine-protein kinase Lck (Homo sapiens, UniProt P06239)
Sequence (P06239 whole entry): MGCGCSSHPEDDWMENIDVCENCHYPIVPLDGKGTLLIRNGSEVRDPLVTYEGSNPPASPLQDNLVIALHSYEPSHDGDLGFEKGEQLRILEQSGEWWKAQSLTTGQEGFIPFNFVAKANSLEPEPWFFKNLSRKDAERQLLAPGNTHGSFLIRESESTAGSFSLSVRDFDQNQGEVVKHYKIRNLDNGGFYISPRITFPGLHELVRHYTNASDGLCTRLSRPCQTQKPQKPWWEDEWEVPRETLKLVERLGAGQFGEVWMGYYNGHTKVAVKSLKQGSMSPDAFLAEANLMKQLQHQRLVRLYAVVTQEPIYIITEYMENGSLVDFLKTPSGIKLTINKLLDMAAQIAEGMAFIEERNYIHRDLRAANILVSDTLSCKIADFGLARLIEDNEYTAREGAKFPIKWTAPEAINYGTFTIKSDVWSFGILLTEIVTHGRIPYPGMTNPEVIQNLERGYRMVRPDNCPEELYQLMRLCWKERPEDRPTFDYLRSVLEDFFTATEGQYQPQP
Assay: DRUGMATRIX: Protein Tyrosine Kinase, LCK enzyme inhibition (substrate: Poly(Glu:Tyr))
Format: cell-based, Insect cells
Conditions: insect cells; Not Active = under 50% inhibition at 10 µM
VALUE_KIND: Ki

In the examples that follow, each entry is paired with its recorded Ki.
SUBSTANCE	Ki
CHROMIC CHLORIDE	Not Active
LEAD(IV) ACETATE	Not Active
POVIDONE	Not Active
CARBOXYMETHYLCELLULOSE	Not Active

Next, consider the following substance.
Query: Need Ki of COPPER(II) OXIDE , thanks.
Response: Not Active

----------
Target: UniProt P18825
Sequence (P18825 whole entry): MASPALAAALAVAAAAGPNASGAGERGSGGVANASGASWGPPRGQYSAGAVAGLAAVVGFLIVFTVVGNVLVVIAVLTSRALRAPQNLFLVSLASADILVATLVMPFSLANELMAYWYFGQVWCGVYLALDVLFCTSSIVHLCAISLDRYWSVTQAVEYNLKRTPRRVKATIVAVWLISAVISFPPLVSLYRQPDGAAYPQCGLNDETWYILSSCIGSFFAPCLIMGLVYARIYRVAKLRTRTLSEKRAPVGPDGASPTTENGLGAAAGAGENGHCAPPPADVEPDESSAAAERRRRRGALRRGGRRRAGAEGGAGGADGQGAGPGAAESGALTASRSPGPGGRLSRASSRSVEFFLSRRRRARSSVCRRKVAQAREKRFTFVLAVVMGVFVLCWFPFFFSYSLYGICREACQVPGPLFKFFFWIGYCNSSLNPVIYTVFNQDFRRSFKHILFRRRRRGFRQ
Assay: DRUGMATRIX: Adrenergic Alpha-2C radioligand binding (ligand: [3H] MK-912)
Type: cell membranes, Sf9, Membrane
Conditions: read-out: IC50
VALUE_KIND: pIC50
Schema: pIC50 number; meaning minus log10 of the concentration expressed in molar units.

COMPOUND	pIC50
CC[C@H](C)[C@@H](CO[C@@H](Cc1ccccc1)C(=O)N[C@@H](CCS(C)(=O)=O)C(=O)OC(C)C)NC[C@@H](N)CS	5.50

Query: Need pIC50 of `CN1C[C@H](CNC(=O)OCc2ccccc2)C[C@@H]2c3cccc4c3c(cn4C)C[C@H]21` , thanks.
Response: 6.72

Query: Need pIC50 of `Clc1cc(Cl)c(OCC#CI)cc1Cl` , thanks.
Response: 5.39

Query: Need pIC50 of CC(CN1c2ccccc2Sc2ccccc21)N(C)C (stereo unspecified) , thanks.
Response: 5.61

Query: Need pIC50 of c1ccc2sc(SSc3nc4ccccc4s3)nc2c1 [BENZOTHIAZYL DISULFIDE] , thanks.
Response: 5.78

Query: Need pIC50 of COc1ccccc1OCCNCC(O)COc1cccc2[nH]c3ccccc3c12 (stereo unspecified) , thanks.
Response: 7.05

----------
Target: Histamine H2 receptor (Homo sapiens, UniProt P25021); also: in other assays of this panel Not Active means under 50% inhibition at 10 µM
Sequence (P25021 whole entry): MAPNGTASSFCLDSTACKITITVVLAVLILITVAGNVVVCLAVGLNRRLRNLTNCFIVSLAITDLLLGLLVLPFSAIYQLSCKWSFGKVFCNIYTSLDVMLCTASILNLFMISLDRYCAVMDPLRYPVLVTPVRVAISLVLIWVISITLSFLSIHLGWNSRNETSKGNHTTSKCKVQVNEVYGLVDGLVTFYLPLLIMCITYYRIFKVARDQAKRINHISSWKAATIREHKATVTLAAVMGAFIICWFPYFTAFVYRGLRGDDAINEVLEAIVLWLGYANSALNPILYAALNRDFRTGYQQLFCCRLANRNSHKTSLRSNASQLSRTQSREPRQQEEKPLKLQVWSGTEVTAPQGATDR
Type: cell membranes, CHO-K1, Membrane
Settings: read-out: IC50
VALUE_KIND: IC50

COMPOUND	VALUE_KIND	VALUE_MEASURED
CC(CN1c2ccccc2Sc2ccccc21)N(C)C (stereo unspecified)	IC50	1160 nM
CC(=O)O[C@]1(C(C)=O)CC[C@H]2[C@@H]3C[C@H](C)C4=CC(=O)CC[C@]4(C)[C@H]3CC[C@@]21C [MEDROXYPROGESTERONE ACETATE]	IC50	27900 nM
CN1C[C@H](CNC(=O)OCc2ccccc2)C[C@@H]2c3cccc4c3c(cn4C)C[C@H]21	IC50	975 nM

Query: Need IC50 of `NC(N)=Nc1nc(CSCCC(N)=NS(N)(=O)=O)cs1` , thanks.
Response: 42 nM

Query: Need IC50 of `CNCCCC12CCC(c3ccccc31)c1ccccc12` , thanks.
Response: 400 nM

Query: Need IC50 of `CC(C)Cn1cnc2c(N)nc3ccccc3c21` , thanks.
Response: 1510 nM
